# System Tested: human CCR6 (Homo sapiens, UniProt P51684)
# Sequence (P51684 1-374): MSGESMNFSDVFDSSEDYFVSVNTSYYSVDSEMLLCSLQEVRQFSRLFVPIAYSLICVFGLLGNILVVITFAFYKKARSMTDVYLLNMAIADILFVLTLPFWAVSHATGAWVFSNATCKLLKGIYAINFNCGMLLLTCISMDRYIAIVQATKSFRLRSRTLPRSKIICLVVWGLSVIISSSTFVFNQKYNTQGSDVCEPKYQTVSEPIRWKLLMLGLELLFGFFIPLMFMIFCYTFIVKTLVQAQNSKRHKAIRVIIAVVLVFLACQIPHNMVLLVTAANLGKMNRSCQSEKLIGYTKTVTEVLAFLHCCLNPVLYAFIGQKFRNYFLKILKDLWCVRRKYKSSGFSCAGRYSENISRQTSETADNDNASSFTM
# Test Method Notes: CHO-K1 CCR6 chemotaxis assay towards CCL20
# Format: cell-based
# Condition Summary: relative -Log IC50; CHO-K1 cells overexpressing human CCR6; migration towards 100 ng/ml CCL20; 4 h
Provide the reported pIC50 of each item.
Reminder that pIC50 is minus the log10 of a molar concentration.

Quick note, pIC50 for O=S(=O)(c1ccc(-c2ccc3nncn3c2)cc1)[C@H]1CC[C@H](Nc2ccc(S(F)(F)(F)(F)F)cc2)CC1 [Example 36] landed at 5.80

pIC50 for NC(=O)c1cc(-c2ccc(S(=O)(=O)[C@H]3CC[C@H](Nc4ccc(S(F)(F)(F)(F)F)cc4)CC3)cc2)co1 [Example 158] is 8.00

Per the record, CNC(=O)c1cccc(-c2ccc(S(=O)(=O)[C@H]3CC[C@H](Nc4ccc(S(F)(F)(F)(F)F)cc4)CC3)cc2)c1 [Example 21] has pIC50 of 7.90

Form: molecule = Cc1n[nH]c2cnc(-c3ccc(S(=O)(=O)[C@H]4CC[C@H](Nc5ccc(S(F)(F)(F)(F)F)cc5)CC4)cc3)cc12 [Example 142] ; pIC50 = 7.60

pIC50 recorded for this molecule, CNC(=O)c1ccc(-c2ccc(S(=O)(=O)[C@H]3CC[C@H](Nc4ccc(S(F)(F)(F)(F)F)cc4)CC3)cc2)cc1 [Example 16] , is 7.90

According to the records, this molecule CC(C)c1cnc2ccc(-c3ccc(S(=O)(=O)[C@H]4CC[C@H](Nc5ccc(S(F)(F)(F)(F)F)cc5)CC4)cc3)cn12 [Example 63] displays pIC50 of 7.90

Lab note: Cc1nnc2ccc(-c3ccc(S(=O)(=O)[C@H]4CC[C@H](Nc5ccc(S(F)(F)(F)(F)F)cc5)CC4)cc3)cn12 [Example 11] gave pIC50 of 7.60

Query NC(=O)c1cccc(-c2ccc(S(=O)(=O)[C@H]3CC[C@H](Nc4ccc(S(F)(F)(F)(F)F)cc4)CC3)cc2)c1 [Example 23] yields pIC50 of 7.30

Entry under test: Cc1nnc2ccc(-c3ccc(S(=O)(=O)[C@H]4CC[C@H](Nc5ccc(S(F)(F)(F)(F)F)cn5)CC4)cc3)cn12 [Example 179] . Its pIC50 was 8.00

The value of pIC50 measured for the molecule Cc1nnc2cnc(-c3ccc(S(=N)(=O)[C@H]4CC[C@H](Nc5ccc(S(F)(F)(F)(F)F)cc5)CC4)cc3)cn12 (stereo partly shown) [Example 170] turned out to be 5.70

pIC50 for Cc1n[nH]c2ccc(-c3ccc(S(=N)(=O)[C@H]4CC[C@H](Nc5ccc(S(F)(F)(F)(F)F)cc5)CC4)cc3)cc12 (stereo partly shown) [Example 86] is 7.10

pIC50 reported for this molecule CC(C)c1nnc2ccc(-c3ccc(S(=N)(=O)[C@H]4CC[C@H](Nc5ccc(S(F)(F)(F)(F)F)cc5)CC4)cc3)cn12 (relative stereo) [Example 102] : 6.80

// pIC50 value for N=S(=O)(c1ccc(-c2ccc3nccn3c2)cc1)[C@H]1CC[C@H](Nc2ccc(S(F)(F)(F)(F)F)cc2)CC1 (stereo partly shown) [Example 87] : 6.90
